molecular target: T1, soluble human FcRn (human, UniProt P55899 24-297; P61769 21-119, biotinylated (Sulfo-NHS-LC-Biotin) in the ELISA; amine-coupled to CM5 chip in SPR); assay: assay not named for Table 26, taken as the IgG competition ELISA
T1 construct: also called shFcRn; biotinylated shFcRn
T1 sequence (P55899 24-297 limits assumed, chain 1 of 2): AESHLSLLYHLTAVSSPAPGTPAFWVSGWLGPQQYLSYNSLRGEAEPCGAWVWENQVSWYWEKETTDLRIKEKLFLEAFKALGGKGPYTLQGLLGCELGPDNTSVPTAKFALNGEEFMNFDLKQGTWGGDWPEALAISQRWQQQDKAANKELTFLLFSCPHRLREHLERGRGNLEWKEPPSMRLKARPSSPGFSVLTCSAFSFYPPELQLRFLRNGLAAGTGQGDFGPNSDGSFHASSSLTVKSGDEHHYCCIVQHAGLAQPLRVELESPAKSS
T1 sequence (P61769 21-119 limits assumed, chain 2 of 2): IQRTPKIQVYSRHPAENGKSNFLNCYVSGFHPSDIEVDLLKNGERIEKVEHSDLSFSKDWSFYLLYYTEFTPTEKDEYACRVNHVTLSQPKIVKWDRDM
QUANTITY MEASURED: IC50 (nM)
Write the value in nM as a bare number.

# IC50 (binder: RFXTGHFGGLYPC (not fully specified; Pen at 3; Sar at 9; NMeLeu at 10; intrachain disulfide; C-terminal amide; N-termini joined by an Asp linker that carries PEG 30 kDa, structure only as drawing CHEM-US-00138; also called Pegylated Analog of Peptide No. 285) [Peptide No. 289] ) is 18
